measurementTarget: Muscarinic acetylcholine receptor
protocolNotes: Binding affinity against Muscarinic acetylcholine receptor using [3H]-OXO-M as the radioligand.
Format: protein assay, Rattus norvegicus
Note to self: use True only for Ki readings below 0.8 nM; a reading exactly at 0.8 nM still gets False.

Below 0.8 nM on Ki? Entry CC[C@@H]1O[C@@]2(CC1=O)CN1CCC2C1 (some centres undefined)
True

Below 0.8 nM on Ki? Entry C[C@H]1OCC2(CN3CCC2C3)O1 (some centres undefined)
False

Below 0.8 nM on Ki? Entry CCC[C@H]1O[C@@]2(CC1=O)CN1CCC2C1 (some centres undefined)
False

Below 0.8 nM on Ki? Entry CC[C@H]1O[C@@]2(CC1=O)CN1CCC2C1 (some centres undefined)
False

Below 0.8 nM on Ki? Entry CC1OC2(CCN(C)CC2)CC1=O (centres undefined)
False

Below 0.8 nM on Ki? Entry CN1O[C@@]2(CC1=O)CN1CCC2C1 (some centres undefined)
False

Below 0.8 nM on Ki? Entry Cc1noc(C2CN3CCC2C3)n1 (centres undefined)
True

Below 0.8 nM on Ki? Entry CCC[C@@H]1O[C@@]2(CC1=O)CN1CCC2C1 (some centres undefined)
False
